- Tested on: CYP19A (aromatase) (Homo sapiens)
- Sequence (P11511 whole entry): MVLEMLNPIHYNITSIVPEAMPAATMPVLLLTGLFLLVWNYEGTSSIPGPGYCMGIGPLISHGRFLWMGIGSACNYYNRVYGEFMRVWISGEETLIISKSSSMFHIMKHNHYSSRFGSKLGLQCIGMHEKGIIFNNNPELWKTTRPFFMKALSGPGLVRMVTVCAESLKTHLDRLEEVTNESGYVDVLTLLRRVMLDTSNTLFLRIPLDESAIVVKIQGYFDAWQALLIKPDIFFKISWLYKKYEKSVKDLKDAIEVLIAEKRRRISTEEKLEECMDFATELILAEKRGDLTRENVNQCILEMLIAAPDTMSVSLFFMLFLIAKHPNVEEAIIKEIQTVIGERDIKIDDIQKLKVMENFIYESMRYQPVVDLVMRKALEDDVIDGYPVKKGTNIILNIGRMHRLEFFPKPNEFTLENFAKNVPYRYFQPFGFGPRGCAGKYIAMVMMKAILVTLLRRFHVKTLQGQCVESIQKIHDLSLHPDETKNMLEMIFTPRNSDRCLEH
- Protocol notes: Inhibition of human CYP19A at 1 uM measured every 1 min for 60 mins by flourimetric assay
Can you tell me inhibition at 1 h, 1 µM for the items I'm about to list?
Quick reminder: number only, in %, skip the unit.

[ask] Dear colleague, please send me the reported inhibition at 1 h, 1 µM for COc1ccc(NC(=O)OC(COc2ccccc2)Cn2ccnc2)cc1 (stereo not drawn) when you can.
[reply] 61

[ask] Dear colleague, please send me the reported inhibition at 1 h, 1 µM for O=C(Nc1ccccc1)OC(Cn1ccnc1)c1ccccc1 (stereo not drawn) when you can.
[reply] 61

[ask] Dear colleague, please send me the reported inhibition at 1 h, 1 µM for O=C(Nc1ccccc1)OC(COc1ccccc1)Cn1ccnc1 (stereo not drawn) when you can.
[reply] 27

###

- Tested on: CYP19A (aromatase) (Homo sapiens)
- Protocol notes: Inhibition of human CYP19A at 1 uM measured every 1 min for 60 mins by flourimetric assay
Kindly return True if reported inhibition at 1 h, 1 µM is no lower than 60%; return False if it is lower.

[ask] Could you verify whether the entry O=C(Nc1ccccc1)OC(COc1ccc(Cl)cc1)Cn1cncn1 (stereo unspecified) shows inhibition at 1 h, 1 µM of no less than 60%?
[reply] False

[ask] Could you verify whether the entry O=C(NCc1ccccc1)OC(Cn1ccnc1)c1ccccc1 (stereo unspecified) shows inhibition at 1 h, 1 µM of no less than 60%?
[reply] True

[ask] Could you verify whether the entry O=C(Nc1ccc(Cl)cc1)OC(Cn1ccnc1)c1ccccc1 (stereo unspecified) shows inhibition at 1 h, 1 µM of no less than 60%?
[reply] True

[ask] Could you verify whether the entry COc1ccc(NC(=O)OC(COc2ccccc2)Cn2ccnc2)c(OC)c1 (stereo unspecified) shows inhibition at 1 h, 1 µM of no less than 60%?
[reply] False

[ask] Could you verify whether the entry COc1ccc(OCC(Cn2cncn2)OC(=O)Nc2ccc(Cl)cc2)cc1 (stereo unspecified) shows inhibition at 1 h, 1 µM of no less than 60%?
[reply] False

[ask] Could you verify whether the entry O=C(Nc1ccc(Cl)cc1)OC(COc1ccccc1)Cn1ccnc1 (stereo unspecified) shows inhibition at 1 h, 1 µM of no less than 60%?
[reply] True
